Recorded measurements of Kp, one per entry
Assay summary: PK study, plasma and brain concentration by mass spectrometry
Type: in vivo
Assay conditions: mouse, brain/plasma, 50 mg/kg, mice, single dose 50 mg/kg; brain versus plasma; read-out: enrichment in brain tissue
Please reply with the number alone, leaving off any unit.

> print(dat)
                         compound.structure  test.result
1  O=C(NCc1ccc(S(=O)(=O)N2CCCCC2)cc1)n1ccc2ccccc21         4.55

Lab note: next compound to report on.
**Q:** Reported Kp, compound O=C(NCc1ccc(S(=O)(=O)N2CCCCCC2)cc1)n1ccc2ccccc21 : ____
**A:** 2.63

###

Assay summary: PK study, plasma and brain concentration by mass spectrometry
Assay type: in vivo
Assay conditions: mouse, brain/plasma, 50 mg/kg, mice; read-out: brain to plasma ratio
Readout: Kp
When you answer, write just the number.

> print(dat)
                                   compound  test.result
1  O=C(NCc1ccc(S(=O)(=O)N2CCCCC2)cc1)n1ccc2ccccc21 [MXC017]         4.55

Now turn to the next compound.
**Q:** # input compound: O=C(NCc1ccc(S(=O)(=O)N2CCCCCC2)cc1)n1ccc2ccccc21 [MXC079] ; wanted: its Kp
**A:** 2.6
